Every entry's value here was drawn from paper PMC12715756.

Each entry below carries its reported Emax.
# Tested system: 5-HT2B (Homo sapiens, UniProt P41595)
# Construct: expressed in transfected cells; host or cells: HEK293T (ATCC; RRID:CVCL_0063), transient transfection
# Sequence (P41595 whole entry): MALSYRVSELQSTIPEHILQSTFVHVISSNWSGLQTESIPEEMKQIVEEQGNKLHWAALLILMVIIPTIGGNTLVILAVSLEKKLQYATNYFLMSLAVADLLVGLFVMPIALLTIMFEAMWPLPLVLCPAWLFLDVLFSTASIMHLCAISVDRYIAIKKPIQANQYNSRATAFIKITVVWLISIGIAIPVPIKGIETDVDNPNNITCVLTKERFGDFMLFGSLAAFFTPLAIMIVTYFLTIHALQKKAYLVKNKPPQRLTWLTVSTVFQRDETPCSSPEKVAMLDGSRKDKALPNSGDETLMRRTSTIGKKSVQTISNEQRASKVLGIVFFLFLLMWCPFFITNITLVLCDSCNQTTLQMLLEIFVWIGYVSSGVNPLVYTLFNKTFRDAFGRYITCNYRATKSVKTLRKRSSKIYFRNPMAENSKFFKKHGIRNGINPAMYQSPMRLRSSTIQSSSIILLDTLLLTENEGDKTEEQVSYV
# Method summary: Gq dissociation BRET assay in HEK293T cells
# Assay type: cell-based
# Condition label: HEK-293T, read-out: Emax ± SEM, %5-HT response 5-HT2B
Readout: Emax (%)

- CC(N)Cc1ccc2c(c1)OCO2 (stereo not shown) [MDA, 3,4-Methylenedioxyamphetamine, reference compound]: 104
- CC(N)Cc1ccc2c(c1)SCO2 (stereo not shown) [SDA, 1-(1,3-benzoxathiol-5-yl)propan-2-amine]: 88.2
- CNC(C)Cc1ccc2c(c1)OCO2 (stereo not shown) [MDMA, 3,4-Methylenedioxymethamphetamine, reference compound]: 59.9
- CNC(C)Cc1ccc2c(c1)SCO2 (stereo not shown) [SDMA]: 70
